# protein stability index listing for each entry below
assay: protein stability index of a GFP-peptide fusion (GPS, HEK-293T) (PSI 1-6); higher = more stable; conditions: treatment: DMSO; c terminus: a fixed tail appended;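 further: 24-mer peptide tiles fused after GFP, lentivirally expressed, FACS-sorted into six equal bins by GFP/DsRed ratio, decoded by Illumina sequencing, PSI is the read-weighted mean bin number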

# annotated cases, reported protein stability index shown
MSHKQIYYSDKYDDEEFEYRHVML [CKS1B]
2.52
TPPLKNVRKKRFRKTQKKVPDVKE [TAF7L]
4.84
MPLLRDIIKMATARQETKEMARKV [ZER1]
2.99

Quick note, protein stability index for CCIDWTHVTDPLIGCKKPVSASGK [SMG5] landed at 3.05

Quick note, protein stability index for QPPPQEEPGTPSSSPDDKLLTSPR [KLHL14] landed at 5.52

Quick note, protein stability index for VDFSLSGRLLFAGYNDYTINVWDV [GNB5] landed at 3.23

Quick note, protein stability index for RVNKEHEHKLKVVRDQISHCTVKL [TRIM9] landed at 3.29

Quick note, protein stability index for KGSSELGFPRVAPEDEVIVNQYVI [RNF208] landed at 2.8

Quick note, protein stability index for EETESSDDVEVLTLKKFKGDLAYR [C8orf76] landed at 4.71

Quick note, protein stability index for KSNVLKLKTADWRVFLFQAPSKEE [PSD2] landed at 2.33

Quick note, protein stability index for ITVTQSHLVIQNLFEGMIWFLVPI [CDS1] landed at 3.25

Quick note, protein stability index for VLQIDNARLAADDFRVKYETELAM [KRT18] landed at 3.04

Quick note, protein stability index for WEQTHLTYRIENYTPDLPRADVDH [MMP1] landed at 3.95

Quick note, protein stability index for YVKVFEHFLENLDKSRKGELLKKS [PRIM1] landed at 1.96

src = the supplement of paper PMC10567573
